molecular target: HiBit-KRAS^G12C (Homo sapiens, UniProt P01116, G12C); assay: HiBit degradation assay in SW1573 HiBit-KRas^G12C cells; format: cell-based; set-up: expressed in transfected cells; host or cells: SW1573 (clone E6), modified pcDNA3.1 vector, TK promoter; settings: SW1573, SW1573 HiBit-KRas^G12C, 0.1% DMSO, 24 hours; read-out: KRas^G12C-HiBit (SW1573; 0.1% DMSO) Dmax**
Sequence (P01116 1-186 isoform P01116-2 G12C limits assumed): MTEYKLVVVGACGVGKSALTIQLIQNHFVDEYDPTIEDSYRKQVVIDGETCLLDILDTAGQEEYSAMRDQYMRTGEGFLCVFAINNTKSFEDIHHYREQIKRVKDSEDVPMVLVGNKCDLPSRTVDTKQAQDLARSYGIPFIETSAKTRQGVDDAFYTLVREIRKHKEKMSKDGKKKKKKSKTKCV
measuredEndpoint: Dmax

* C=CC(=O)N1CCN(c2nc(OCCN3CCC(CCOCC(=O)N[C@H](C(=O)N4C[C@H](O)C[C@H]4C(=O)N[C@@H](C)c4ccc(-c5scnc5C)cc4)C(C)(C)C)CC3)nc3c(F)c(-c4cc(O)cc5ccccc45)c(Cl)cc23)CC1 [Compound 64] | 35 to 70%
* C=CC(=O)N1CCN(c2nc(O[C@H](C)CN3CCC(COCC(=O)N[C@H](C(=O)N4C[C@H](O)C[C@H]4C(=O)N[C@@H](C)c4ccc(-c5scnc5C)cc4)C(C)(C)C)CC3)nc3c2CCN(c2cc(O)cc4ccccc24)C3)C[C@@H]1CC#N [Compound 29] | 35 to 70%
* C=C(F)C(=O)N1CCN(c2nc(O[C@H](C)CN3CCC(COCC(=O)N[C@H](C(=O)N4C[C@H](O)C[C@H]4C(=O)N[C@@H](C)c4ccc(-c5scnc5C)cc4)C(C)(C)C)CC3)nc3c2CCN(c2cc(O)cc4ccccc24)C3)C[C@@H]1CC#N [Compound 24] | < 35%

Now for a further molecule.
The measured Dmax associated with C=CC(=O)N1CCN(c2nc(O[C@H](C)CN3CCC(COc4cc([C@@H](C(=O)N5C[C@H](O)C[C@H]5C(=O)N[C@@H](C)c5ccc(-c6scnc6C)cc5)C(C)C)on4)CC3)nc3c(F)c(-c4cc(O)cc5ccccc45)c(Cl)cc23)CC1 [Compound 20] reads 35 to 70%
